Tested on: SK-MEL-2 melanoma
METHOD: NCI-60 one-dose screen, 48 h
TEST_CONTEXT: 10 µM unless noted
The panel holds about 83,000 compounds, 20% with a hit somewhere; the sample as a whole holds those more often. The source made the active and inactive calls. Rule for the calls: active = growth percent below 10; inactive = the rest.
Answer with one of the outcomes true = active, false = inactive

// param item: COc1ccc(-n2c(/C=C/c3ccc(O)c(OC)c3)cc(/C=C/c3ccc(O)c(OC)c3)nc2=O)cc1 ; yields the recorded call false

Proceed to CC/C=C\C[C@H]1CC=C2C(=O)C=C[C@@H]2CC=CCCCC(=O)O[C@@H](CCCCC)CC=C2C(=O)C=C[C@@H]2CC=CCCCC(=O)O[C@@H](CCCCC)CC=C2C(=O)C=C[C@@H]2CC=CCCCC(=O)O[C@@H](CCCCC)CC=C2C(=O)C=C[C@@H]2CC=CCCCC(=O)O1 true

Proceed to N#CC1C(=N)Cc2ccccc2-c2ccccc21 (stereo unspecified) false

Proceed to Cc1ccc2c(c1)c1nc3cc(C)c(C)cc3nc1n2CCN(C)C false

Proceed to Cn1cc(-c2csc(-c3c[nH]c4ccccc34)n2)c2cccnc21 false

Proceed to COc1ccc(-c2cc(/C=C/C(=O)c3ccc(N)cc3)[nH]n2)cc1 false

Proceed to C=C1CC[C@@H](C(=O)OC)Cc2nc(C)ccc21 false

Proceed to CC(C)c1cc(C(=O)O)c(O)c(C(C)C)c1.CC(C)c1cc(C(=O)O)c(O)c(C(C)C)c1.[Mn] false

Proceed to O=S(=O)(NCCCNc1cc(-c2cn(-c3ccccc3)nc2-c2cccc(O)c2)ccn1)c1ccc(F)cc1 false

Proceed to Cc1ccc(Nc2c(C(N)=O)cnc3ccc(S(=O)(=O)Nc4cc(C)on4)cc23)cc1 false

Proceed to N#CC1=C(N)Oc2ccc3ccccc3c2C1c1ccccc1Cl (stereo unspecified) false

Proceed to Cc1ccnc2c(OCc3ccccc3)cccc12 false

Proceed to C=C(C)[C@@H]1CC[C@]2(C(=O)N3CCCNCC3)CC[C@]3(C)[C@H](CC[C@@H]4[C@@]5(C)CCC(=O)C(C)(C)[C@@H]5CC[C@]43C)[C@@H]12 false

Proceed to COc1cccc2c1C(=O)c1c(O)c3c(c(O)c1C2=O)C[C@@](O)(C(=O)CO)C[C@@H]3OC1C[C@H](N)[C@H](O)[C@H](C)O1 (stereo partly specified) true

Proceed to Cc1ccc(-c2ccc(/C=C(\C#N)c3nc(-c4ccco4)cs3)o2)cc1 false

Proceed to CC1(C)C=CC[C@]2(C)[C@H]3CC[C@@H]4[C@H]5[C@H](C(=O)/C=C/c6cccnc6)CC[C@]5(CO)CC[C@@]4(C)[C@]3(C)CC[C@@H]12 true

Proceed to O=C1CN(c2ccccc2)C(=O)C1C(=O)Nc1ccc(Cl)c(Cl)c1 (stereo unspecified) false

Proceed to Cc1cc(N(CCCNc2ccnc3cc(Cl)ccc23)Cc2ccco2)nc(N2CCN(C)CC2)n1 false

Proceed to COCCNC1=C(Cl)C(=O)c2ccccc2C1=O false

Proceed to O=C(c1ccccc1)C(CN1CCOCC1)c1ccccc1 (stereo unspecified) true

Proceed to O=[N+]([O-])c1cc(S(=O)(=O)c2ccc(F)c([N+](=O)[O-])c2)ccc1F false

Proceed to NC1=NN(c2ccccc2)C(=O)/C1=C/c1ccc(Cl)cc1 false

Proceed to C#CCn1c2c(c3ccccc31)C[C@]1(C)[C@H]3CC[C@@H]4[C@@H]5C(=CCC[C@H]5C(=C)C)CC[C@@]4(C)[C@]3(C)CC[C@H]1C2(C)C false

Proceed to COc1cccc(-c2nn(-c3ccccc3)cc2-c2ccnc(NCCCO)c2)c1 true

Proceed to CCCCn1c(-c2ccc(O)cc2)cn2c3c(=O)[nH]c(=O)n(C)c3nc12 false

Proceed to Nc1ncnc2nc(Br)[nH]c12 false

Proceed to COc1cc(/C=C/c2cc(/C=C/c3ccc(O)c(OC)c3)n(-c3ccc(Cl)cc3)c(=O)n2)ccc1O false

Proceed to COc1cc2nc(Cl)nc(Nc3cccc(C(=O)/C=C/c4ccc(Br)cc4)c3)c2cc1OC false

Proceed to COc1ccc2nc(-c3cc(-c4cc(OC)c(OC)c(OC)c4)n[nH]3)[nH]c2c1 true

Proceed to Nc1nc2c(c(=O)[nH]1)C(c1ccc3c(c1)OCO3)C=C(C(=O)O)N2 (stereo unspecified) false

Proceed to O=S(=O)(NCCNc1cc(-c2cn(-c3ccccc3)nc2-c2cccc(O)c2)ccn1)c1cccc(F)c1 false

Proceed to O=c1[nH]c2c3ccncc3cc(-c3cccc(Cl)c3)c2c2cnccc12 false

Proceed to COc1ccc2[nH]c(-c3ccc(Cl)cc3)cc(=O)c2c1 false

Proceed to CC1(C)c2ccccc2C(=O)C1(Br)Cc1ccccc1 (stereo unspecified) false

Proceed to Cc1ccccc1-c1nc(C(Cl)Cl)nc2cc(-c3ccccc3)nn12 false

Proceed to COC(=O)[C@]12CC[C@@H](C)[C@H](C)[C@@H]1C1=CC(=O)[C@@H]3[C@@]4(C)C[C@@H](OC(C)=O)[C@H](OC(C)=O)[C@@](C)(COC(C)=O)[C@@H]4C(=O)C[C@@]3(C)[C@]1(C)CC2 false
